# System: UACC-257 melanoma
# procedure text: NCI tumour cell line growth inhibition, 48 h
Label scheme for TGI: lower than 20 µM is label 0, 20 µM and above is label 1.

Reference set (6 entries):
{"compound": "CC12C(=O)OC(=O)C1(C)C1C=CC2O1 (stereo unspecified)", "label value": "label 1"}
{"compound": "CC(=O)C1=C(O)CCC1=O", "label value": "label 1"}
{"compound": "CCc1ccccc1NC(=O)C(=O)CC(=O)c1sc(Nc2ccccc2Cl)nc1C", "label value": "label 1"}
{"compound": "COC(=O)[C@@]12C=CC(=O)[C@H]3C[C@@H](C(C(C)C)C1)[C@]32OC (stereo partly specified)", "label value": "label 1"}
{"compound": "CCN(CC)C(=S)SS(=O)(=O)c1ccc(NC(C)=O)cc1", "label value": "label 1"}
{"compound": "Fc1cccc(-c2[nH]nc3nc(Nc4cccnc4)sc23)c1", "label value": "label 1"}

Hi, just wondering whether Cc1cc(O)c2c(c1)CC(O)C1=C2C(=O)c2c(O)ccc(OC3CC(O)C(OC4CC(OC5CCC(O)C(C)O5)C(O)C(C)O4)C(C)O3)c2C1=O (stereo unspecified) shows TGI of 20 µM or higher. label 0

Same question, "CC(C)c1ccc2nc3ccc(C(=O)NCCN4CCN(c5ccccc5)CC4)cn3c(=O)c2c1" this time label 1

Same question, CCCCCC/C=C1\CCC(CN(C)C)C1=O (stereo unspecified) this time label 0

Same question, COC1=CC(=O)C2C(C1=O)C(c1ccc(OC)c(OC)c1)[C@H]2C (stereo partly specified) this time label 1

Same question, "CCN1CCN(c2ccc(Nc3ncc4ccc5ncn(C(C)C)c5c4n3)nc2)CC1" this time label 1

###

# Test system: A549 NSCLC
# procedure text: NCI tumour cell line growth inhibition, 48 h
List of TGI values.

Record excerpt, results attached:
{"compound": "CCN(CC)CCCCC1CCN(CC(=O)N2c3cc(Cl)ccc3NC(=O)CC2C)CC1 (stereo unspecified)", "TGI": "> 100 µM"}
{"compound": "O=C(O)CCSC(=S)Nc1ccc([N+](=O)[O-])cc1", "TGI": "> 100 µM"}
{"compound": "CC1=CC(=O)/C(=C/n2c(=S)[nH]c3ccc([N+](=O)[O-])cc32)C(=O)O1", "TGI": "> 100 µM"}
{"compound": "Cc1nc2sc(C(=O)Nc3cccc(Br)c3)c(N)c2cc1C(O)c1ccccc1 (stereo unspecified)", "TGI": "> 71.3 µM"}
{"compound": "COc1ccc(N=CN(C)C)c(C)c1", "TGI": "> 100 µM"}
{"compound": "CCN(CC)CCCNc1ncc(C)c2c1c1ccc3c(O)cccc3c1n2C", "TGI": "2.34 µM"}
{"compound": "COC(=O)C(=O)C(C(=O)OC)C(=O)C(=O)Nc1cc(Cl)c(Cl)cc1Cl (stereo unspecified)", "TGI": "> 100 µM"}
{"compound": "Cc1cn(C2CC(NC(=NCC3OC(n4cnc5c(N)ncnc54)CC3O)NC#N)C(CO)O2)c(=O)[nH]c1=O (stereo unspecified)", "TGI": "> 100 µM"}

// query TGI value for entry "CNC(=O)Nc1ccccc1" > 100 µM

Same question, C=CCSSc1ncnc2c1ncn2C1OC(CO)C(O)C1O (stereo unspecified) this time > 100 µM

Same question, "Cn1c(=O)c2c(nc3n(C)c(=O)c4ccccc4n23)n(C)c1=O" this time > 100 µM

Same question, CCCCCC/C=C1\CCC(CN(C)C)C1=O (stereo unspecified) this time 36.9 µM

Same question, "Oc1c(I)cc(I)cc1CN(Cc1ccccn1)Cc1ccccn1" this time 13.4 µM

Same question, "CCN1CCN(c2ccc(Nc3ncc4ccc5ncn(C(C)C)c5c4n3)nc2)CC1" this time 10.4 µM

Same question, "Fc1ccc2c3c([nH]c2c1)CCNC3" this time > 100 µM

Same question, CCOC(=O)NC1CC2CCC1(OC)C=C2C (stereo unspecified) this time > 100 µM

###

# System: OVCAR-5 ovarian
# procedure text: NCI tumour cell line growth inhibition, 48 h
List of TGI values.
Your answer is read as µM, so omit the unit and give the number.

{"compound": "O=c1/c(=C/c2ccc([N+](=O)[O-])o2)sc2n1[C@@H](c1ccc3c(c1)OCO3)C=C(c1cc(F)c(Cl)cc1Cl)N=2", "target of assay": "OVCAR-5 ovarian", "unit": "µM", "TGI": 43.8}
{"compound": "C/C=C/C1=CN2C(=O)c3cc(OC4OC(C)C(NC)C(C)(O)C4O)c(C)c(O)c3N=C[C@@H]2C1 (stereo not given in full)", "target of assay": "OVCAR-5 ovarian", "unit": "µM", "TGI": 2.92}
{"compound": "COc1cccc(C2c3cc4c(cc3OC(N3CCCCC3)C2C)OCO4)c1OC (stereo not given)", "target of assay": "OVCAR-5 ovarian", "unit": "µM", "TGI": 79.4}

Please examine the following record next.
// query TGI value for entry "CC(=O)[O][Bi]([c]1ccccc1)[c]1ccccc1" 26.3

###

# System: PC-3 prostate
# procedure text: NCI tumour cell line growth inhibition, 48 h
result type: TGI (µM)
Your answer is read as µM, so omit the unit and give the number.

Record excerpt, results attached:
{"molecule": "Fc1c(F)c(C(F)(F)F)c(F)c(F)c1N/N=C/c1cn(Cc2ccccc2)c2ccccc12", "unit": "µM", "TGI": 79.2}
{"molecule": "O=c1c(=[n+]2ccc(=C([O-])c3ccccc3)cc2)/c(=N/S(=O)(=O)c2ccccc2)c(=O)c2ccccc12", "unit": "µM", "TGI": 23.6}
{"molecule": "CC(CN)[C@@H]1CC[C@]2(CO)CC[C@]3(C)[C@H](CC[C@@H]4[C@@]5(C)CCC(N)C(C)(C)[C@@H]5CC[C@]43C)[C@@H]12 (stereo not given in full)", "unit": "µM", "TGI": 3.31}

Please examine the following record next.
// query TGI value for entry "COC(=O)/C=C1/OC(c2ccc(C)cc2)=C(Cl)C1=O" 27.7

###

# System: SNB-78 CNS
# procedure text: NCI tumour cell line growth inhibition, 48 h
List of TGI values.

Record excerpt, results attached:
{"compound": "C#Cc1cc(CN(CC(=O)OC(C)(C)C)CC(=O)OC(C)(C)C)nc(CN(CC(=O)OC(C)(C)C)CC(=O)OC(C)(C)C)c1", "TGI": "70.4 µM"}
{"compound": "COc1ccccc1NC(=O)C(CC(C(=O)Nc1ccccc1OC)/C(C)=N/NC(=O)c1ccccc1O)/C(C)=N/NC(=O)c1ccccc1O (stereo not given)", "TGI": "> 100 µM"}

Please examine the following record next.
Please state recorded TGI (tested on SNB-78 CNS) of CC1=Nc2ccccc2C12C(c1ccccc1)C(c1ccccc1)C(=O)N1c3ccccc3CC12 (stereo not given) > 100 µM

###

List of TGI values.
# System: PC-3 prostate
# procedure text: NCI tumour cell line growth inhibition, 48 h

Record excerpt, results attached:
{"compound": "C[N+](C)(CCO)CCN1c2ccccc2Sc2ccccc21", "TGI": "> 10 µM"}
{"compound": "COc1ccc(C(c2cc3c(cc2O)OCO3)N2CCOCC2)cc1OC (stereo not drawn)", "TGI": "25.7 µM"}
{"compound": "Nc1nc(-c2ccc(Cl)cc2)cc(-c2ccccc2)c1-c1nc2ccccc2o1", "TGI": "16.8 µM"}

Please state recorded TGI (tested on PC-3 prostate) of "CCOC(=O)c1ccc(N=c2oc3ccc(OC)cc3cc2-c2nc3ccccc3[nH]2)cc1" > 100 µM

Same question, "CCn1c2ccccc2c2cc(NC(=O)c3c(NCCNCCO)nc(=O)[nH]c3C)ccc21" this time > 100 µM

Same question, "CC(C)NC(=O)OCc1c(COC(=O)NC(C)C)c(-c2ccc[n+](COC(=O)C(C)(C)C)c2)n2c1CCC2" this time > 100 µM

Same question, CCCCCC/C=C1\CCC(CN(C)C)C1=O (stereo not drawn) this time 24 µM

Same question, "CCc1ccccc1NC(=O)C(=O)CC(=O)c1sc(Nc2ccccc2Cl)nc1C" this time > 100 µM

###

# Tested on: HCT-116 colon
# procedure text: NCI tumour cell line growth inhibition, 48 h
Where a SMILES comes first, the peptide text is derived from it. [ ]: non-standard residue; d: D form. The star is where a group is joined. Bn2Val = CC(C)[C@@H](C(=O)*)N(Cc1ccccc1)Cc1ccccc1; NH(3,4-diMeO-benzyl) = COc1ccc(CN*)cc1OC; NMeV = CN[C@H](C(=O)O)C(C)C
List of TGI values.
Your answer is read as µM, so omit the unit and give the number.

Record excerpt, results attached:
{"molecule": "CCN1CCN(c2ccc(Nc3ncc4ccc5ncn(C(C)C)c5c4n3)nc2)CC1", "target of assay": "HCT-116 colon", "unit": "µM", "TGI": 0.55}
{"molecule": "O=c1[nH]c2cc([N+](=O)[O-])ccc2nc1/C=C(\\O)c1ccc(Cl)cc1", "target of assay": "HCT-116 colon", "unit": "µM", "TGI": 11.8}
{"molecule": "C=C(CN(C)C)C(=O)c1ccc(Oc2ccccc2)cc1", "target of assay": "HCT-116 colon", "unit": "µM", "TGI": 5.32}
{"molecule": "COc1ccc(CNC(=O)[C@@H]2CCCN2C(=O)[C@@H]2CCCN2C(=O)[C@H](C(C)C)N(C)C(=O)[C@@H](NC(=O)[C@H](C(C)C)N(Cc2ccccc2)Cc2ccccc2)C(C)C)cc1OC (Bn2Val-V[NMeV]PP-{NH(3,4-diMeO-benzyl)})", "target of assay": "HCT-116 colon", "unit": "µM", "TGI": 29.5}
{"molecule": "COc1ccc(C(SCC(N)C(=O)O)(c2ccc(OC)cc2)c2ccc(OC)cc2)cc1 (stereo not drawn)", "target of assay": "HCT-116 colon", "unit": "µM", "TGI": 15.6}

// query TGI value for entry "COc1cc(N2CCC(N3CCN(C)CC3)CC2)ccc1Nc1ncc(Cl)c(Nc2ccccc2S(=O)(=O)C(C)C)n1" 1.64

Same question, Cc1nc2sc(C(=O)Nc3cccc(Br)c3)c(N)c2cc1C(O)c1ccccc1 (stereo not drawn) this time 16.2

Same question, "O=Nc1c(NO)ccc2nn(-c3ccccc3)nc12" this time 23.1

Same question, Oc1cccc2c1[nH]c1c(C3=C[C@@]4(O)CC/C=C\CCCCN5CC[C@@H]3[C@]3(CC6/C=C\CCCCN6[C@H]34)C5)nccc12 (stereo partly drawn) this time 2.74

Same question, "O=S(=O)(Nc1ccccn1)c1ccc(N=Nc2ccc(O)c3ncccc23)cc1" this time 22.6

Same question, CC1c2cc(c3c(c2O)CN([C@@H](C)C2CCCCC2)CO3)C(C)c2cc(c3c(c2O)CN([C@@H](C)C2CCCCC2)CO3)C(C)c2cc(c3c(c2O)CN([C@@H](C)C2CCCCC2)CO3)C(C)c2cc1c1c(c2O)CN([C@@H](C)C2CCCCC2)CO1 (stereo partly drawn) this time 2.04

Same question, "c1ccc2c3c(ccc2c1)-c1c(ccc2c(NCCCCN4CCCCC4)cccc12)C3" this time 2.98

Same question, COC1=CC(=O)C2C(C1=O)C(c1ccc(OC)c(OC)c1)[C@H]2C (stereo partly drawn) this time 31.9
